This listing pairs molecules with measured GI50.
test system: OVCAR-5; experiment: NCI tumour cell line growth inhibition, 48 h
Calls of active or inactive are those of the source. Rule as the data show it: active = GI50 up to about 1.1 µM and inactive = higher.

- Molecule: "CCOC(=O)CCC(NC(=O)C(N)Cc1ccc(N(CCCl)CCCl)cc1)C(=O)OCC (stereo not given)"
  GI50: "2.47 µM (inactive)"
- Molecule: "CCCCc1ccc(Nc2nc(Cl)c3[nH]cnc3n2)cc1"
  GI50: "40.6 µM (inactive)"
- Molecule: "O=C1C(OC(=O)c2ccccc2)=C(c2ccc(O)cc2)C(=O)C(OC(=O)c2ccccc2)=C1c1ccc(O)cc1"
  GI50: "> 100 µM (inactive)"
- Molecule: "CC1C2=CC=C(O2)C(C)(C)C2=CC=C(O2)C(C)(C)C2=CC=C(O2)C(C)(C)C2=CC=C1O2"
  GI50: "> 100 µM (inactive)"
- Molecule: "Cc1ccc(C(=O)CCl)o1"
  GI50: "> 5.6 µM (inactive)"
- Molecule: "C=CCCn1nc(-c2ccccc2)oc1=O"
  GI50: "> 100 µM (inactive)"
- Molecule: "COc1ccc2oc3c4c2c1CCC4CCC3=O (stereo not given)"
  GI50: "> 100 µM (inactive)"
- Molecule: "CCCNC(=O)Nc1c([N+](=O)[O-])cc(C(F)(F)F)cc1[N+](=O)[O-]"
  GI50: "> 100 µM (inactive)"
- Molecule: "C[Si](C)(OCCS(=O)(=O)O)C1S(=O)(=O)OCCOS1(=O)=O"
  GI50: "> 100 µM (inactive)"
- Molecule: "N#CC(Nc1cccc(C(F)(F)F)c1)c1ccccc1C(F)(F)F (stereo not given)"
  GI50: "14.8 µM (inactive)"
- Molecule: "CC(C)c1cccc(C(C)C)c1NC(=O)C(=O)C1CCC2=C(Sc3ccccc3N2)C1=O (stereo not given)"
  GI50: "41.5 µM (inactive)"
- Molecule: "NC(=S)N/N=C(\\CCC(=O)Nc1ccccc1[N+](=O)[O-])CC(=O)c1ccco1"
  GI50: "> 100 µM (inactive)"
- Molecule: "Cc1cc(=O)n2nc(CN3CCCCC3)sc2n1"
  GI50: "> 100 µM (inactive)"
- Molecule: "BrC1(Br)C2/C=C\\CCCCC21 (stereo not given)"
  GI50: "> 100 µM (inactive)"
- Molecule: "COc1ccc2c(NCCCCCCNc3c4ccccc4nc4cc(OC)ccc34)c3ccccc3nc2c1"
  GI50: "0.186 µM (active)"
- Molecule: "CCC1=C(C(C)=O)[C@@H]2CCCCC[C@@H](C(=O)OC)C2C1=O (stereo not given in full)"
  GI50: "> 100 µM (inactive)"
- Molecule: "CC1(C)N=c2c(ncn2CCO)=C(C(N)=O)N1"
  GI50: "> 100 µM (inactive)"
- Molecule: "CN(C)c1ccc(/C=C/C(=O)C(C)(C)C)cc1Br"
  GI50: "49 µM (inactive)"
- Molecule: "COCCOCCOCCOc1ccc(C(C#N)N(CCc2ccccc2)C(=O)c2cc(C(=O)N(CCc3ccccc3)C(C#N)c3ccc(OCCOCCOCCOC)cc3)cc(C(=O)N(CCc3ccccc3)C(C#N)c3ccc(OCCOCCOCCOC)cc3)c2)cc1 (stereo not given)"
  GI50: "> 100 µM (inactive)"
- Molecule: "C/C=C(\\C)C(=O)O[C@@H]1CC(C)(C)CC2C3=CCC4[C@]56CC[C@](O)(OC5)C(C)(C)C6CC[C@@]4(C)C3(C)CC[C@]21C(=O)O (stereo not given in full)"
  GI50: "> 100 µM (inactive)"
